Hey, just so you know, these numbers are from patent US3943129A.

# Lookup of reported MIC keyed by entry
system: Staph. aurcus villaluz; experiment: Minimum inhibitory concentration (MIC)
Give the number; µg/mL is assumed, so skip it.

Known results for compounds:
- NC(C(=O)NC1C(=O)N2C(C(=O)O)=C(CSc3n[nH]c(=O)[nH]3)CSC12)c1ccccc1 (stereo not drawn) [Compound I]: 12.5
- NC(C(=O)NC1C(=O)N2C(C(=O)O)=C(CSc3n[nH]c(=O)[nH]3)CSC12)c1ccc(O)cc1 (stereo not drawn) [Compound IV]: 25
- Cn1c(SCC2=C(C(=O)O)N3C(=O)C(NC(=O)C(N)c4ccccc4)C3SC2)n[nH]c1=O (stereo not drawn) [II]: 25
- O=C(O)C1=C(CSc2n[nH]c(=S)s2)CSC2C(NC(=O)C(O)c3ccccc3)C(=O)N12 (stereo not drawn) [VII]: 12.5
- O=C(Cc1cccs1)N[C@@H]1C(=O)N2C(C(=O)[O-])=C(C[n+]3ccccc3)CS[C@H]12 [S-I, cephaloridine, reference compound]: 12.5

Read the next record carefully.
[ask] Please state recorded MIC (tested on Staph. aurcus villaluz) of CCn1c(SCC2=C(C(=O)O)N3C(=O)C(NC(=O)C(N)c4ccccc4)C3SC2)n[nH]c1=O (stereo not drawn) [III]
[reply] 25
